assay.target: 20S proteasome (Homo sapiens, UniProt P28074+P49721)
Construct: purchased Calbiochem
assay: 20S proteasome activity (chymotrypsin-like, Suc-Leu-Leu-Val-Tyr-MCA substrate)
Type: biochemical
recorded.conditions: in vitro
measured.endpoint: Effect on 20S proteasome activity (in words)

>>> result("O=C(CC12CCCN1CCC2)Nc1ccccc1F")
"partially inhibited"
>>> result("O=C(CC12CCCN1CCC2)Nc1ccc(F)cc1")
"partially inhibited"
>>> result("O=C(CC12CCCN1CCC2)Nc1cccc(F)c1")
"partially inhibited"
